Test: Test 4: metabolic stability test in human hepatic microsome
Type: in vitro ADME
Settings: 0.1 mg/mL microsome, 0.1 μmol/L compound, 37° C., 30 minutes
I'd appreciate it if you could supply Metabolic stability in human hepatic microsome values for the items below.
Numbers only, in mL/min/mg protein.

Examples from the recorded data:
Cc1noc2ccn(CCN3CCC(c4noc5ccccc45)CC3)c(=O)c12: 0.148
Cn1ncc2c1CCCN(CCN1CCN(c3noc4ccccc34)CC1)C2=O: 0.012
Cn1ncc2c1CCCN(CCN1CCN(c3nsc4ccccc34)CC1)C2=O: 0.04

Could you now look at the following compound, please?
Given the compound CC1CN(CCN2CCN(c3nsc4ccccc34)CC2)C(=O)c2ccn(C)c21 (stereo not drawn) , write its reported Metabolic stability in human hepatic microsome.
0.409

----------
Assay: Test 4: metabolic stability test in human hepatic microsome
Format: in vitro ADME
Conditions: 0.1 mg/mL microsome, 0.1 μmol/L compound, 37° C., 30 minutes
Assignment: determine reported Metabolic stability in human hepatic microsome for the given compounds.

Reference set (8 entries):
Cc1cc2c(cn1)C(=O)N(CCN1CCN(c3noc4ccccc34)CC1)CC2 [Example 3]: <0.01 mL/min/mg protein
O=C1c2occc2CCN1CCN1CCC(c2noc3ccccc23)CC1 [Example 127]: <0.05 mL/min/mg protein
Cc1n[nH]c2c1C(=O)N(CCN1CCC(c3noc4ccccc34)CC1)CC2 [Example 99]: <0.01 mL/min/mg protein
O=c1c2ncccc2ccn1CCN1CCN(c2noc3ccccc23)CC1 [Example 117]: <0.05 mL/min/mg protein
Cn1ccc2c1CCCN(CCN1CCN(c3nsc4ccccc34)CC1)C2=O [Example 165]: 0.265 mL/min/mg protein
CCn1ncc2c1CCN(CCN1CCN(c3nsc4ccccc34)CC1)C2=O [Example 64]: 0.064 mL/min/mg protein
Cc1nc2c(o1)C(=O)N(CCN1CCN(c3nsc4ccccc34)CC1)CCC2 [Example 46]: 0.018 mL/min/mg protein
Cc1ncc2c(n1)CCN(CCN1CCC(c3noc4ccccc34)CC1)C2=O [Example 88]: <0.01 mL/min/mg protein

Dear reader, for each entry below, please note its Metabolic stability in human hepatic microsome.
1. O=C1c2ncccc2CCN1CCN1CCN(c2noc3ccccc23)CC1 [Example 1]
2. COc1cc2c(cn1)C(=O)N(CCN1CCN(c3noc4ccccc34)CC1)CC2 [Example 20]
3. Cn1cc2c(n1)CCCN(CCN1CCN(c3nsc4ccccc34)CC1)C2=O [Example 42]
4. Cc1cc2c(n1C)CCCN(CCN1CCC(c3noc4ccccc34)CC1)C2=O [Example 166]
5. Cn1cc2c(n1)CCN(CCN1CCC(c3noc4ccccc34)CC1)C2=O [Example 17]

1. <0.01 mL/min/mg protein
2. 0.091 mL/min/mg protein
3. 0.100 mL/min/mg protein
4. <0.05 mL/min/mg protein
5. <0.01 mL/min/mg protein

----------
Molecular target: human D2 receptor (Homo sapiens (Human), UniProt P14416)
Sequence (P14416 whole entry): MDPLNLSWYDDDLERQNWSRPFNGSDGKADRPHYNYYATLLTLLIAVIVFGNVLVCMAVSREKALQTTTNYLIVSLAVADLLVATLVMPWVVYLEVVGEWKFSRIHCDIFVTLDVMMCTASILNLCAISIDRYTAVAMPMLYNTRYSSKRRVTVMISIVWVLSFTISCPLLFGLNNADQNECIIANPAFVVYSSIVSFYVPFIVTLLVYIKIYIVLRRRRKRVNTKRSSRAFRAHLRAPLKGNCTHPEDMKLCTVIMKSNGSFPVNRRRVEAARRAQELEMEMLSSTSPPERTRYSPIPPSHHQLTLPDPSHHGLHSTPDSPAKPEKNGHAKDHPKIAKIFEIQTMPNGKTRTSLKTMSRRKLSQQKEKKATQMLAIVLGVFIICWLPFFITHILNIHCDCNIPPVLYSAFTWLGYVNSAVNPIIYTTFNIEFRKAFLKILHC
Assay: Test 1: binding activity for human D2 receptor ([3H]Spiperone, CHO cell membrane fraction)
Details: human D2 receptor, [3H]Spiperone
measured_endpoint: pKi
Numbers only, as −log10 of the molar value.

These solved cases illustrate the format of a correct answer.
CCn1cc2c(n1)CCN(CCN1CCN(c3nsc4ccccc34)CC1)C2=O [Example 163]: 6.12
Cc1c2c(nn1C)CCN(CCN1CCC(c3noc4ccccc34)CC1)C2=O [Example 37]: 6.57
COc1ncc2c(n1)CCN(CCN1CCN(c3nsc4ccccc34)CC1)C2=O [Example 177]: 6.63
Cn1cc2c(n1)CCN(CCN1CCC(c3noc4ccccc34)CC1)C2=O [Example 17]: 6.16
O=C1c2ncccc2CCN1CCN1CCC(c2noc3ccc(F)cc23)CC1 [Example 5]: 5.11

State the recorded pKi for every item in the following list.
1. Cc1ccc2c(C3CCN(CCN4CCc5cccnc5C4=O)CC3)noc2c1 [Example 118]
2. O=C1c2ncccc2CCN1CCN1CCN(c2nsc3cc(F)ccc23)CC1 [Example 27]
3. Cc1cc2c(cn1)C(=O)N(CCN1CCN(c3noc4ccccc34)CC1)CC2(C)C [Example 86]
4. Cn1c(F)cc2c1CCN(CCN1CCN(c3nsc4ccccc34)CC1)C2=O [Example 112]

6.56
6.64
5.92
6.77

----------
Target: human 5-HT1A receptor (Homo sapiens (Human), UniProt P08908)
Sequence (P08908 whole entry): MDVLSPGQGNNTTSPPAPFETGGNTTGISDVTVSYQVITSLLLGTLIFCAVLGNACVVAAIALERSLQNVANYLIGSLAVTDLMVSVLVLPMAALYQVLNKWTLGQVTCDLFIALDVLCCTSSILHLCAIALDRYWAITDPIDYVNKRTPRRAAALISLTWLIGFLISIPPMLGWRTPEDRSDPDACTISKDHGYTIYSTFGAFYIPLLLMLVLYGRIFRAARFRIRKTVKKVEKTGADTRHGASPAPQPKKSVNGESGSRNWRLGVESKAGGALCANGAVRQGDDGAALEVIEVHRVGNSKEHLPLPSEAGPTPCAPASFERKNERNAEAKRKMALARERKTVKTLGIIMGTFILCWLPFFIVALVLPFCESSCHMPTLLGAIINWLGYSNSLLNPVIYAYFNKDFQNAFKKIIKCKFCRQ
Experiment: Test 2: agonist activity for human 5-HT1A receptor ([35S]GTPγS binding)
Assay type: biochemical
Conditions: agonist activity in the presence of 10 μM of compound, relative to 100 μmol/L 5-HT
Assignment: determine reported Emax at 10 µM for the given compounds.
Numbers only, in %.

O=C1c2[nH]cnc2CCCN1CCN1CCN(c2nsc3ccccc23)CC1: 58

Could you tell me Emax at 10 µM for each of these compounds? They are listed below.
1. Cn1ccc2c1CCCN(CCN1CCC(c3noc4ccccc34)C1)C2=O (stereo not drawn)
2. Cc1ccc2c(C3CCN(CCN4CCc5cccnc5C4=O)CC3)noc2c1

1. 36
2. 5

----------
Target: hERG channel (Homo sapiens (Human))
Sequence (Q12809 whole entry): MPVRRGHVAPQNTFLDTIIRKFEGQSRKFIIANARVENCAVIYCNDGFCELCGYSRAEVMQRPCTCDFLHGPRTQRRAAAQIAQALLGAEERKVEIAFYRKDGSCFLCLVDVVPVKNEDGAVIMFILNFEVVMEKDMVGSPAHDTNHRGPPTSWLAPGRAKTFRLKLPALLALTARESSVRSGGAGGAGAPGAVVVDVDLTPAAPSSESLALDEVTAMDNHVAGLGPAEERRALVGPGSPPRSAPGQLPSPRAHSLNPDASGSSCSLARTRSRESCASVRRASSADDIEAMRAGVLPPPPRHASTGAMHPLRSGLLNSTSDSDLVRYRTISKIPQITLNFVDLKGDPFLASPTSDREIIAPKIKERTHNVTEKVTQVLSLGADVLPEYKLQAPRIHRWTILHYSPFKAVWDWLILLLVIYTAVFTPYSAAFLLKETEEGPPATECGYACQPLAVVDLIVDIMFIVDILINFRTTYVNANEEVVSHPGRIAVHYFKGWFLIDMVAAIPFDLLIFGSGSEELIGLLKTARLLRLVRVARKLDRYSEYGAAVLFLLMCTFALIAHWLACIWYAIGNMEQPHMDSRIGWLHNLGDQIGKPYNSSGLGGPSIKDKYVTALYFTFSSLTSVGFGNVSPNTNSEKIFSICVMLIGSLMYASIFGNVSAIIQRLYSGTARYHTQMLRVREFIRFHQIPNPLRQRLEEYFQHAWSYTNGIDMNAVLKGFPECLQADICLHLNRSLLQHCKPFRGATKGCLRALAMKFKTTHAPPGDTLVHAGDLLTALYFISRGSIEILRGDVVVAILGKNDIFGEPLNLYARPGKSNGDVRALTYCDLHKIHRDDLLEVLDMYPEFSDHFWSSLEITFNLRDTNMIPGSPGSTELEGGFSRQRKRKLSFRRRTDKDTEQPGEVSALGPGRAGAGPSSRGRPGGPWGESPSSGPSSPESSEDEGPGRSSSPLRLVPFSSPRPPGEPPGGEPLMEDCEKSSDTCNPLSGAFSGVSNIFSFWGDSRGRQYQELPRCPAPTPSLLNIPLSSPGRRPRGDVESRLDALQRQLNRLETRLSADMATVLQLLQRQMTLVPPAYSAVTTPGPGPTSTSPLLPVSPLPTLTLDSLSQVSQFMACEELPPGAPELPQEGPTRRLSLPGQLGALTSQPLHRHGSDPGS
Experiment: Test 6-1: inhibitory activity for hERG channel (auto patch clamp, Qpatch)
Format: cell-based
Conditions: ratio of hERG IC50 to 5-HT2A Ki
Field: hERG inhibition IC50 (nmol/L)/5-HT2A Ki (nmol/L). Provide a value for each of the molecules that follow.
Give bare numbers.

Please state, for each entry, its recorded hERG inhibition IC50 (nmol/L)/5-HT2A Ki (nmol/L).
1. Cc1cncc2c1CCN(CCN1CCN(c3noc4ccccc34)CC1)C2=O [Example 137]
2. Cc1nc2c(o1)C(=O)N(CCN1CCC(c3noc4ccccc34)CC1)CCC2 [Example 154]
3. Cn1ccc2c1CCCN(CCN1CCC(c3noc4ccccc34)C1)C2=O (stereo not shown) [Example 175]
4. Cc1nc2c(o1)CCCN(CCN1CCC(c3noc4ccccc34)CC1)C2=O [Example 157]
5. Cn1ncc2c1CCCN(CCN1CCC(c3noc4ccccc34)CC1)C2=O [Example 43]
6. Cn1ccc2c1CCN(CCN1CCC(c3noc4ccccc34)CC1)C2=O [Example 60]

1: 686; 2: 54; 3: 253; 4: 110; 5: 2274; 6: 640

Parameter requested: hERG inhibition IC50 (nmol/L)/5-HT2A Ki (nmol/L). Apply to each item below.
1. CCc1ccc2c(n1)C(=O)N(CCN1CCC(c3noc4ccccc34)CC1)CC2 [Example 185]
2. Cn1cnc2c1CCCN(CCN1CCC(c3noc4ccccc34)CC1)C2=O [Example 101]
3. O=C1c2cnc(OC3COC3)cc2CCN1CCN1CCN(c2nsc3ccccc23)CC1 [Example 111]
4. Cn1cc2c(n1)CCN(CCN1CCN(c3nsc4ccccc34)CC1)C2=O [Example 36]

[25, 2165, 984, 5162]

Check the records and state hERG inhibition IC50 (nmol/L)/5-HT2A Ki (nmol/L) for O=C1c2nc(Cl)ccc2CCN1CCN1CCC(c2noc3ccccc23)CC1 [Example 146]
28

----------
Target: human 5-HT2A receptor (Homo sapiens (Human))
Sequence (P28223 whole entry): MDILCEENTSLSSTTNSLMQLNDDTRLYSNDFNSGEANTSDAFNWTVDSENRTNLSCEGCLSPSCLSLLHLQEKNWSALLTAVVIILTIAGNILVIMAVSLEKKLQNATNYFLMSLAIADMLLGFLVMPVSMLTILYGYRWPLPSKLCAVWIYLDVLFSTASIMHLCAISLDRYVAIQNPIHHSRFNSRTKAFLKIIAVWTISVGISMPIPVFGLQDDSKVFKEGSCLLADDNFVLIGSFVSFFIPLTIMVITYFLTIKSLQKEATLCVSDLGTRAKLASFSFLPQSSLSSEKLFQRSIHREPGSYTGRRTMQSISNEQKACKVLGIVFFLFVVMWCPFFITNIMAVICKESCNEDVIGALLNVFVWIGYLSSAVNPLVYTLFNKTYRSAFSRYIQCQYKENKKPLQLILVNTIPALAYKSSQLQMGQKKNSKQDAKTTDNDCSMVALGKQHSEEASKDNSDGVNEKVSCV
Response field class: string, computed from recorded Ki by ranges low = under 1 nM, medium = from 1 nM up to 6 nM, high = 6 nM and over

Cn1ccc2c1CCN(CCN1CCC(c3noc4ccccc34)CC1)C2=O: medium
O=C1c2ncccc2CCC1CCN1CCN(c2nsc3ccccc23)CC1 (centres unmarked): medium

Any idea which band Cc1noc2c1C(=O)N(CCN1CCN(c3nsc4ccccc34)CC1)CC2 is in?
low

Textbook exercise: identify the category of the compound given here, O=C1c2ncoc2CCN1CCN1CCC(c2noc3ccccc23)CC1 , according to its measured value.
high

Form field 'band' for Cc1cc2ccn(CCN3CCN(c4noc5ccccc45)CC3)c(=O)c2cn1
medium

Would you mind sorting Cn1ncc2c1CCN(CCN1CCN(c3noc4ccccc34)CC1)C2=O into the appropriate category?
high

----------
Target: human D2 receptor (Homo sapiens (Human))
Test: Test 1: binding activity for human D2 receptor ([3H]Spiperone, CHO cell membrane fraction)
Settings: human D2 receptor, [3H]Spiperone
For each of the compounds below, state its pKi.
Answers are plain numbers, as −log10 of the molar value.

// solved cases for pKi follow
Cn1cnc2c1C(=O)N(CCN1CCC(c3noc4ccccc34)CC1)CC2 [Example 133]: 6.04
Cn1cc2c(n1)C(=O)N(CCN1CCC(c3noc4ccccc34)CC1)CC2 [Example 156]: 6.13

Moving on to another compound below.
Identify the reported pKi for the following entry. COc1cc2c(cn1)CCN(CCN1CCN(c3nsc4ccccc34)CC1)C2=O [Example 19]
6.16

----------
Target: human 5-HT1A receptor (Homo sapiens (Human), UniProt P08908)
Assay: Test 2: agonist activity for human 5-HT1A receptor ([35S]GTPγS binding)
Details: [35S]GTPγS binding; concentration at which half the activity of Emax was obtained
I'd appreciate it if you could supply pEC50 values for the items below.
Numbers only, as −log10 of the molar value.

The examples below pair each entry with its known result.
Cc1nccc2c1C(=O)N(CCN1CCN(c3noc4ccccc34)CC1)CC2: 7.39
O=c1c2cnc(C(F)(F)F)cc2ccn1CCN1CCN(c2noc3ccccc23)CC1: 7.39

Give me pEC50 for each of these compounds, listed below.
1. Cn1ccc2c1CCN(CCN1CCN(c3nsc4ccccc34)CC1)C2=O
2. Cn1c(F)cc2c1CCN(CCN1CCN(c3nsc4ccccc34)CC1)C2=O
3. COc1cc2c(cn1)C(=O)N(CCN1CCN(c3nsc4ccccc34)CC1)CC2

[8.01, 8.03, 9.74]
